Where do the numbers come from? From ChEMBL document CHEMBL6083259.

# assay.text: Cmax in male Sprague-Dawley rat at 2 mg/kg, po measured after 24 hrs by LC-MS/MS analysis
# Assay type: ADME, organism-based
# assay.setup: in vivo
quantity.name: Cmax (ng/mL)
Give the value in ng/mL but do not write ng/mL after it.

chemical.string: COc1ncc2c(-c3nc4cc(F)c5c(c4s3)C[C@H](COC(=O)Nc3cc(F)cc(C#N)c3)O5)cc(C)cc2n1
Cmax, ng/mL: 170
//
chemical.string: COc1ncc2c(-c3nc4cc(F)c5c(c4s3)C[C@H](COC(=O)Nc3cccc(C#N)c3)O5)cc(C)cc2n1
Cmax, ng/mL: 214

From here, focus on the item given below.
// fetch Cmax given entry COCc1ncc2c(-c3nc4cc(F)c(OCCOC(=O)Nc5cc(F)cc(C#N)c5)cc4s3)cc(C)cc2n1
146

====

# assay.text: Oral bioavailability in male Sprague-Dawley rat measured after 24 hrs by LC-MS/MS analysis
# Format: ADME, organism-based
# assay.setup: in vivo
quantity.name: bioavailability (%)
# output: bare number, implied unit %

Answer with reported bioavailability of COc1cc(Cl)c2nc(-c3cc(C)cc4c(=O)n(C)cnc34)sc2c1
3.71

====

# assay.text: AUC (0 to last) in po dosed male Sprague-Dawley rat measured after 24 hrs by LC-MS/MS analysis
# Assay type: ADME, organism-based
# assay.setup: in vivo
quantity.name: AUC(0-t) at 24 h (ng·h/mL)
Your answer should be a plain number; it is taken to be in ng·h/mL.

In one line, give reported AUC(0-t) at 24 h of the entry COc1cc(Cl)c2nc(-c3cc(C)cc4c(=O)n(C)cnc34)sc2c1 .
32

====

# assay.text: Clearance in male Sprague-Dawley rat at 0.5 mg/kg, iv measured after 24 hrs by LC-MS/MS analysis
# Type: ADME, organism-based
# assay.setup: in vivo
quantity.name: clearance
Kindly write the number and append the unit.

chemical.string: COCc1ncc2c(-c3nc4cc(F)c(OCCOC(=O)Nc5cc(F)cc(C#N)c5)cc4s3)cc(C)cc2n1
clearance: 9.5 mL/min/kg

Please give the documented clearance of COc1ncc2c(-c3nc4cc(F)c5c(c4s3)C[C@H](COC(=O)Nc3cc(F)cc(C#N)c3)O5)cc(C)cc2n1
9.8 mL/min/kg

Look up and state reported clearance for COc1ncc2c(-c3nc4cc(F)c5c(c4s3)C[C@H](COC(=O)Nc3cccc(C#N)c3)O5)cc(C)cc2n1
12.8 mL/min/kg

====

# assay.text: Clearance in male Sprague-Dawley rat at 2 mg/kg, po measured after 24 hrs by LC-MS/MS analysis
# Assay type: ADME, organism-based
# assay.setup: in vivo
quantity.name: CL/F (mL/min/kg)
Give the quantity in mL/min/kg, number only.

See these solved cases before continuing.
chemical.string: COc1ncc2c(-c3nc4cc(F)c5c(c4s3)C[C@H](COC(=O)Nc3cc(F)cc(C#N)c3)O5)cc(C)cc2n1
CL/F, mL/min/kg: 37.7
--
chemical.string: COc1ncc2c(-c3nc4cc(F)c5c(c4s3)C[C@H](COC(=O)Nc3cccc(C#N)c3)O5)cc(C)cc2n1
CL/F, mL/min/kg: 25.4

Okay, next one:
Tell me CL/F reported for COCc1ncc2c(-c3nc4cc(F)c(OCCOC(=O)Nc5cc(F)cc(C#N)c5)cc4s3)cc(C)cc2n1
65.3
